# System: SN12C renal
# experimentNotes: NCI-60 one-dose screen, 48 h (100 = growth as untreated, 0 = no growth, -100 = all killed)
# assayContext: 10 µM unless noted
Compounds without any hit were thinned out: in the full panel of roughly 83,000, 20% have a hit.
I'd be grateful if you could share measured growth for these entries.
Numbers only here, please. The scale is %.

Query :: What is its growth for SN12C renal? Entry: COc1cc2c(cc1OCCCOc1ccc(-c3cc4ccccc4c4ccccc34)cc1)N=C[C@@H]1CCCN1C2=O
Result :: -73.5

Query :: What is its growth for SN12C renal? Entry: O=C1CN(CO)C(=O)CN1CO
Result :: 99.3

Query :: What is its growth for SN12C renal? Entry: COc1ncc(-c2ccc3nccc(C#CCN4CCN(S(C)(=O)=O)CC4)c3c2)cc1NS(=O)(=O)c1ccc(F)cc1F
Result :: 2.52

Query :: What is its growth for SN12C renal? Entry: N#Cc1c(N)[nH]c(S)c1C#N
Result :: 108

Query :: What is its growth for SN12C renal? Entry: O=C(Nc1cccc(-n2cc(-c3ccncc3)c(-c3ccc(O)c(Cl)c3)n2)c1)Nc1ccc(Cl)c(C(F)(F)F)c1
Result :: 9.97

Query :: What is its growth for SN12C renal? Entry: C=C(C[C@@](O)(C(=O)Oc1ccccc1)C(=O)C1CCCCC1)c1ccccc1
Result :: 98
